Test system: CCRF-CEM leukemia
Assay: NCI tumour cell line growth inhibition, 48 h
Recorded metric: TGI

Compound	Endpoint result
C[C@H](Nc1nc(N)c(N=O)c(=O)n1C)C(=O)O	> 10 µM
CC1SC(c2ccccc2Cl)N(NC(=O)C(O)c2ccccc2)C1=O (centres undefined)	> 100 µM
C=C(/C=C/C=C(\C)CCC=C(C)C)[C@@H]1CC[C@]2([C@H](CCCO)/C(=C(/C)C=O)CC[C@]2(C)O)[C@@H]1O	48.8 µM
COc1ccc(/C=C/c2cc(OC)c(OC(C)=O)c(OC)c2)cc1	> 100 µM
CC(C)(C)c1ccc2c(c1)OP1(Oc3c(Cl)cc(Cl)c4cccnc34)(O2)Oc2ccc(C(C)(C)C)cc2O1	> 100 µM
CC#Cc1c(O)c2c(c(O)c1C#CC)C(=O)c1ccccc1C2=O	> 100 µM
CCOC(=O)c1ccc(-n2cnc(-c3ccc([N+](=O)[O-])cc3)c2)cc1	> 100 µM
Cc1c(CN2CCN(C(=O)[C@H](C)O)CC2)sc2c(N3CCOCC3)nc(-c3cnc(N)nc3)nc12	> 100 µM
CC(C)(C)OC(=O)NCC(CNC(=O)OC(C)(C)C)C(N)=O	> 100 µM
CSc1ccc(C2=NN(C(C)=O)C(c3ccc(-c4cc(Cl)c(Cl)cc4Cl)o3)C2)cc1 (centres undefined)	47 µM
Nc1nc(=O)n(C2CCC(CO)O2)cc1F (centres undefined)	> 100 µM
C#C[C@]1(O)CC[C@H]2[C@@H]3CCC4=C/C(=N\OCCN5CCCCC5)CC[C@]4(C)[C@H]3CC[C@@]21C	> 53.8 µM
O=C1c2ccccc2C(=O)N1CCc1ncc(-c2ccccc2)[nH]1	> 100 µM
CCC1=C(c2ccc(OC)cc2)C(C)(C)Oc2c1ccc(O)c2CN1CCCC1	5.38 µM
Oc1ccccc1-c1nn(CNc2ccc(Cl)cc2)c(=S)o1	> 100 µM
Cc1ccc(S(=O)(=O)n2cc(C=O)c(-c3cn(S(=O)(=O)c4ccc(C)cc4)cc3-c3cn(S(=O)(=O)c4ccc(C)cc4)cc3C=O)c2)cc1	> 100 µM
O=C(c1c(F)c(F)c(F)c(F)c1F)c1c(F)c(F)c(F)c(F)c1F	1.15 µM
Cc1ccc(CNc2ccc3nc(CCC4CCCCC4)[nH]c3c2)cc1	> 100 µM
Cc1c(Cn2c(C)nc3c(C(=O)O)cc(N4CCOCC4)cc32)cccc1C(F)(F)F	> 100 µM
CC(C)(C)c1cc(/C=C(\C#N)C2=NCCO2)cc(C(C)(C)C)c1O	9.35 µM
COC(=O)CCC(=O)Nc1ccc(Cl)cc1C	> 100 µM
CC(Oc1ccc2c(-c3ccc(Cl)cc3)cc(=O)oc2c1)C(=O)O (centres undefined)	> 100 µM
Cc1c(NC(=S)Nc2ccc([N+](=O)[O-])cc2)c(=O)n(-c2ccccc2)n1C	> 100 µM
CC1(C)N=C(N)N=C(N)N1c1ccc(CNC(=O)Nc2ccc(S(=O)(=O)F)c(Cl)c2)c(Cl)c1	> 100 µM
